Data provenance: patent US8691753B2

Catalogue of pKi readings, one per entry.
molecular target: MMP-13h (Homo sapiens (Human)); assay: Inhibition constant (Ki) on MMP-13h; assay type: biochemical; conditions: read-out: Ki MMP-13h; human MMP-13
pKi: −log10 of the molar value.

cpd-smiles | target-system | pKi
NC(=O)CC[C@H](NC(=O)CCc1cc(-c2ccc(-c3ccccc3)cc2)no1)C(=O)N[C@@H](CCC(=O)O)C(N)=O | MMP-13h (Homo sapiens (Human)) | 6.63
NC(=O)[C@H](CCC(=O)O)NC(=O)[C@H](CC(=O)O)NC(=O)CCc1cc(-c2ccc(-c3ccccc3)cc2)no1 | MMP-13h (Homo sapiens (Human)) | 7.44
NC(=O)[C@@H](CCC(=O)O)NC(=O)[C@H](CCC(=O)O)NC(=O)CCc1cc(-c2ccc(-c3cccc(Cl)c3)cc2)no1 | MMP-13h (Homo sapiens (Human)) | 7.28
O=C(O)CC[C@H](NC(=O)CCc1ccc(-c2ccc(-c3ccccc3)cc2)cc1)C(=O)Nc1cccc(CC(=O)O)c1 | MMP-13h (Homo sapiens (Human)) | 7.99

----------
Target: MMP-3h (Homo sapiens (Human))
Sequence (P08254 100-477): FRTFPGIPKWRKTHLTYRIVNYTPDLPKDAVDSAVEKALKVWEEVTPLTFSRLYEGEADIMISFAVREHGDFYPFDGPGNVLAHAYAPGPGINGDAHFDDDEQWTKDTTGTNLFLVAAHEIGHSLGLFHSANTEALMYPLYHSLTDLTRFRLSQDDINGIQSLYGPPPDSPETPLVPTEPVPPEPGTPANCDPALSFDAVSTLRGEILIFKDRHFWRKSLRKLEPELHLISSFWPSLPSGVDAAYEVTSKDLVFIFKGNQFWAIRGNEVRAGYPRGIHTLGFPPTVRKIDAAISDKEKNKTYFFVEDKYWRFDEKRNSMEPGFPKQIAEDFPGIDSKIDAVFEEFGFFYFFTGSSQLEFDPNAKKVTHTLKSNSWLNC
Assay: Inhibition constant (Ki) on MMP-3h
Assay type: biochemical
Settings: human MMP-3
Description: The inhibition constant Ki of these compounds has been determined according to the protocol described by Devel et al, 2006, J. Biol. Chem. (7). In this table I and also in table II below, “h” corresponds to human. All of the compounds have therefore been evaluated on human MMPs.
value-type: log10 of Ki (log10 of the value in nM)

cpd-smiles | value-type | endpoint-result
NC(=O)[C@H](CCCC(=O)O)NC(=O)[C@H](CCCC(=O)O)NC(=O)CCc1cc(-c2ccc(-c3cccc(Cl)c3)cc2)no1 | log10 of Ki | 2.76
NC(=O)[C@H](CCC(=O)O)NC(=O)[C@H](CCC(=O)O)NC(=O)CCc1cc(-c2ccc(-c3ccccc3)cc2)no1 | log10 of Ki | 1.89
NC(=O)CC[C@H](NC(=O)CCc1ccc(-c2ccc(-c3ccccc3)cc2)cc1)C(=O)N[C@@H](CCC(=O)O)C(N)=O | log10 of Ki | 1.81
NC(=O)[C@H](CCC(=O)O)NC(=O)[C@H](CCC(=O)O)NC(=O)CCc1ccc(-c2ccsc2)cc1 | log10 of Ki | 2.53
NC(=O)[C@H](CCC(=O)O)NC(=O)[C@H](CCC(=O)O)NC(=O)CCc1ccc(-c2cccc([N+](=O)[O-])c2)cc1 | log10 of Ki | 2.94

----------
target: MMP-2h (Homo sapiens (Human), UniProt P08253); assay: Inhibition constant (Ki) on MMP-2h; type: biochemical; details: read-out: Ki MMP-2h; human MMP-2
Sequence (P08253 110-660): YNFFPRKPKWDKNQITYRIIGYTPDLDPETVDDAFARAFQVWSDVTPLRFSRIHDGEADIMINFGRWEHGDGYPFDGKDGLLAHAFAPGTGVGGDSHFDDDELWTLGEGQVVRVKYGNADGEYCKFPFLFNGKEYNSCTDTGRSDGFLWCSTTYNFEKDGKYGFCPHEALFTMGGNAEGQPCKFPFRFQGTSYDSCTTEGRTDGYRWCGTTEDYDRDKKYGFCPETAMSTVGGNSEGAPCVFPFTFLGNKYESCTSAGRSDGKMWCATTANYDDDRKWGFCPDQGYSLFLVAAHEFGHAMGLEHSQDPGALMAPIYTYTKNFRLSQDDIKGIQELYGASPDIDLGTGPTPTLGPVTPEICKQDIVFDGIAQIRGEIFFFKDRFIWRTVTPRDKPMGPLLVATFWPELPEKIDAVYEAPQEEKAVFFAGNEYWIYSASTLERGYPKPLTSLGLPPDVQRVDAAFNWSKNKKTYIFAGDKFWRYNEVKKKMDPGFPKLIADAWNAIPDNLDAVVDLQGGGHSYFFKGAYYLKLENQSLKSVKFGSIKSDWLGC
pKi: −log10 of the molar value.
Catalogue of pKi readings, one per entry.
value-type: pKi

compound | endpoint-result
O=C(O)CC[C@H](NC(=O)CCc1ccc(-c2cccs2)cc1)C(=O)Nc1cccc(CC(=O)O)c1 [Compound 90] | 6.94
NC(=O)CC[C@H](NC(=O)[C@H](CCC(N)=O)NC(=O)CCc1ccc(-c2ccccc2)cc1)C(N)=O [Compound 43] | 6.50
NC(=O)CC[C@H](NC(=O)[C@H](CCC(=O)O)NC(=O)CCc1ccc(-c2ccc(-c3ccccc3)cc2)cc1)C(N)=O [Compound 62] | 7.35
NC(=O)CC[C@H](NC(=O)CCc1cc(-c2ccc(-c3ccccc3)cc2)no1)C(=O)N[C@@H](CCC(=O)O)C(N)=O [Compound 20] | 6.08
